Would you kindly list p53-positive nuclei, normalised for each of these molecules?
- tested-system: Cellular tumor antigen p53 (Homo sapiens) (UniProt P04637)
- Sequence (P04637 whole entry, looked up): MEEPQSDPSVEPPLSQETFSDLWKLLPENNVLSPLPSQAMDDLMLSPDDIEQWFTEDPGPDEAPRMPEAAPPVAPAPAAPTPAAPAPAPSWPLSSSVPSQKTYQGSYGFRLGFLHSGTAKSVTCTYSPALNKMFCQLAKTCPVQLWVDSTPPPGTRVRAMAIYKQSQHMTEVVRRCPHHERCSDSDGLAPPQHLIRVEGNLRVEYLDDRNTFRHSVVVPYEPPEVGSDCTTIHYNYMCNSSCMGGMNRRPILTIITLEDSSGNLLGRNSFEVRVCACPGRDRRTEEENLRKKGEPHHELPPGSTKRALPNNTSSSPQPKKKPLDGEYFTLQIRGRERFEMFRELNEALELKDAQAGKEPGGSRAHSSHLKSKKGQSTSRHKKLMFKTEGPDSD
- assay-info: nuclear p53 accumulation, HPV+ cells – imaging, p53-positive nuclei imaging, 24 h, 48 h (AID 1508601)
- test-parameters: 24/48 h, Library stock concentration: 4.6 uM, stronger effect = higher value
In all, about 5,700 compounds went through this assay and about 85 (1%) were called active. The sample holds actives, similar compounds and a random draw of the others, so the mix is not that of the screen.
Numbers only, in %.

                                   molecule                             tested_system  numeric_value
0     CCOC(=O)c1sc(NC(=O)c2ccco2)c(SC#N)c1C  Cellular tumor antigen p53 (Homo sapiens) (UniProt P04637)         -0.158
1  CCCCCCCCCCCCCC=CC(O)C(CO)N(C)C (stereo not drawn)  Cellular tumor antigen p53 (Homo sapiens) (UniProt P04637)        -0.0366

Q: Looking for the measured p53-positive nuclei, normalised of Nc1ccn(C2C=C(CO)C(O)C2O)c(=O)n1 (stereo not drawn) , can you help?
A: 0.0813

---

- tested-system: Cellular tumor antigen p53 (Homo sapiens)
- assay-info: nuclear p53 accumulation, HPV+ cells – imaging, p53-positive nuclei imaging, 24 h, 48 h (AID 1508601)
- test-parameters: 24/48 h, measured here: p53 positive nuclei at 24 h, Library stock concentration: 123 uM, stronger effect = higher value
Out of some 5,700 compounds screened, about 85 (1%) were called active. Many of the other results were omitted from the sample, so actives are more common in it than they were.
Would you kindly list p53-positive nuclei, normalised for each of these compounds?
One number for each entry, in %.

>>> print(df.to_string())
                                   compound  numeric_value
0  OCC1OC(n2cnc3c2NC=NCC3O)CC1O (stereo not given)        -0.0944
1  CCCCCCCCCCCCCC=CC(O)C(CO)N(C)C (stereo not given)         -0.148

For every record below, what is its p53-positive nuclei, normalised?
1. COC(=O)C#Cc1ccc([N+](=O)[O-])cc1
2. Nc1ccn(C2OC(CO)C(O)C2F)c(=O)n1 (stereo not given)
3. CCOC(=O)c1sc(NC(=O)c2ccco2)c(SC#N)c1C

A:
1. -0.148
2. 0.0172
3. 0.00346

---

- tested-system: Cellular tumor antigen p53 (Homo sapiens)
- assay-info: nuclear p53 accumulation, HPV+ cells – imaging, p53-positive nuclei imaging, 24 h, 48 h (AID 1508601)
- test-parameters: 24/48 h, Library stock concentration: 1.67 mM, stronger effect = higher value
Hit rate of the full screen: of about 5,700 compounds, about 85 (1%) were called active. This is one part of a sample in which actives are shown more often than they occur.
Would you kindly list p53-positive nuclei, normalised for each of these molecules?
Answers are plain numbers, in %.

Answered cases to consult:
                                   molecule  value_units  numeric_value
0  COC(=O)C(NC(=O)c1cc(-c2ccccc2)nc2ccccc12)c1ccccc1 (stereo not given)            %         -0.104
1                     Nc1cccc(OCc2ccccc2)c1            %          0.151
2  CN1CCc2c(c3ccccc3n2Cc2ccc(C(=O)NO)cc2)C1            %          0.201

For every record below, what is its p53-positive nuclei, normalised?
1. O=C1CC(c2ccc([N+](=O)[O-])cc2)=NN1c1ccccc1
2. Cc1cc(OCc2nnc(SC3CCCC3)n2-c2cccnc2)ccc1-c1ccc(S(C)(=O)=O)cc1

A:
[-0.137, 2.41]
